B1: CPEB3 Ribozyme (parent)
chain: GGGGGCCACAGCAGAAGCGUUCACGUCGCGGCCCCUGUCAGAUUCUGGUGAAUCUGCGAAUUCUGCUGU

- Variants of: B1
- Assay overview: self-cleavage, relative activity (ratio to wild type); higher = more cleavage; co-transcriptional
Can you tell me self-cleavage for the items I'm about to list?
Answers are plain numbers.

Known results for variants:
A51C U64G    0.841
G31C C34A    0.341
G2U G14A    0.0496
G25C G28C    0.153

Batch request: self-cleavage per item, same order as input.
1. G25C C32U
2. A13G G30U
3. G28C A52C
4. U26A C54A
5. G37A G68C
6. A16C U61C

1: 0.179; 2: 0.241; 3: 0.198; 4: 0.655; 5: 0.371; 6: 0.26

Give self-cleavage for each of the items listed below.
1. G4U C18A
2. A10G A13U
3. C6U C35U
4. C32G U64C

1: 0.0913; 2: 0.13; 3: 0.78; 4: 0.311

Give its self-cleavage value. Item: G5A G11A
0.785
